# assaySystem: S. aureus SPase (Staphylococcus aureus)
# testDescription: biochemical
Numbered stars: 1 amine (or outer) side, 2 acyl side, 3 side chain; on linkers, the order of the positions; unused ones are H or OH. Square brackets hold non-standard residues; d marks the D form. Peptide text beside a SMILES is read from it. * marks the point of attachment. ξ: configuration not given here. boroAla((+)-pinanediol) = C[C@H](N*)B1O[C@@H]2C[C@@H]3C[C@@H](C3(C)C)[C@]2(C)O1; Biphenylcarbonyl(4'-Bu) = CCCCc1ccc(-c2ccc(C(=O)*)cc2)cc1; X1 = C[C@H](N*)B1OC2C[C@@H]3C[C@@H](C3(C)C)[C@]2(C)O1; ξ3Amino2oxobutanoyl = CC(N[*:1])C(=O)C(=O)[*:2]; Benzoyl(4-hexyl) = CCCCCCc1ccc(C(=O)*)cc1; X17 = O=C(/C=C/C=C/C12CC3CC(CC(C3)C1)C2)*; Pro(4R-NH2) = N[C@H]1CN[C@H](C(=O)O)C1; NMeThr(3ξ) = CN[C@H](C(=O)O)C(C)O; Hpg = N[C@H](C(=O)O)c1ccc(O)cc1; Thr(3ξ) = CC(O)[C@H](N)C(=O)O; Lauroyl = CCCCCCCCCCCC(=O)*; X3 = CCCCCCCCCCCCS(=O)(=O)*; Decanoyl = CCCCCCCCCC(=O)*; boroAla = C[C@H](N*)B(O)O; Orn = NCCC[C@H](N)C(=O)O; Dab = NCC[C@H](N)C(=O)O; Abu = CC[C@H](N)C(=O)O; Ac3c = NC1(C(=O)O)CC1; boroGly = OB(O)CN*; βAla = NCCC(=O)O
Listed below: log10 IC50 values for each entry.
outcomeMeasure: log10 IC50 (log10 of the value in nM)

>  <compound>
CCCCCCCCCCCCS(=O)(=O)N[C@@H](CCCCN)C(=O)N[C@H](C(=O)N[C@@H](C)C(=O)N[C@@H](CCCCN)C(=O)N[C@@H](C)B(O)O)C(C)O (some centres unmarked) [Compound 265] (X3-K[Thr(3ξ)]AK-boroAla)

>  <log10 IC50>
1.23

$$$$
>  <compound>
CCCCc1ccc(-c2ccc(C(=O)N[C@@H](CCCN)C(=O)N[C@H](C(=O)N[C@@H](CC)C(=O)N[C@@H](CCCCN)C(=O)N[C@@H](C)B3OC4C[C@@H]5C[C@@H](C5(C)C)[C@]4(C)O3)C(C)O)cc2)cc1 (some centres unmarked) [Compound 150] ({Biphenylcarbonyl(4'-Bu)}-[Orn][Thr(3ξ)][Abu]K-X1)

>  <log10 IC50>
2.43

$$$$
>  <compound>
CCCCCCCCCCCC(=O)NCCC(=O)N[C@@H](CCCCN)C(=O)N[C@H](C(=O)N[C@@H](C)C(=O)N[C@@H](CC(N)=O)C(=O)N[C@@H](C)B1OC2C[C@@H]3C[C@@H](C3(C)C)[C@]2(C)O1)[C@@H](C)O (some centres unmarked) [Compound 202] ({Lauroyl-βAla}-KTAN-X1)

>  <log10 IC50>
0.54

$$$$
>  <compound>
CCCCCCCCCC(=O)N[C@@H](CC(C)C)C(=O)N[C@H](C(=O)N1CCC[C@@H]1C(=O)N[C@H](C(=O)N[C@@H](C)C(=O)N[C@@H](Cc1ccc(O)cc1)C(=O)NCB(O)O)C(C)O)C(C)O (some centres unmarked) [Compound 128] (Decanoyl-L[Thr(3ξ)][dP][Thr(3ξ)]AY-boroGly)

>  <log10 IC50>
2.83

$$$$
>  <compound>
CCCCc1ccc(-c2ccc(C(=O)NCCC(=O)N[C@@H](CCCCN)C(=O)N[C@H](C(=O)N[C@@H](C)C(=O)N[C@@H](CC(N)=O)C(=O)N[C@@H](C)B3OC4C[C@@H]5C[C@@H](C5(C)C)[C@]4(C)O3)c3ccc(O)cc3)cc2)cc1 (some centres unmarked) [Compound 209] ({Biphenylcarbonyl(4'-Bu)-βAla}-K[Hpg]AN-X1)

>  <log10 IC50>
1.18

$$$$
>  <compound>
CCCCc1ccc(-c2ccc(C(=O)N[C@@H](CCCCN)C(=O)NC3(C(=O)N[C@@H](C)C(=O)N[C@@H](CCCCN)C(=O)N[C@@H](C)B4OC5C[C@@H]6C[C@@H](C6(C)C)[C@]5(C)O4)CC3)cc2)cc1 (some centres unmarked) [Compound 137] ({Biphenylcarbonyl(4'-Bu)}-K[Ac3c]AK-X1)

>  <log10 IC50>
4.41

$$$$
>  <compound>
C[C@H](NC(=O)[C@H](CCCCN)NC(=O)[C@H](C)NC(=O)[C@@H](NC(=O)[C@H](CCN)NC(=O)/C=C/C=C/C12CC3CC(CC(C3)C1)C2)[C@@H](C)O)B1O[C@@H]2C[C@@H]3C[C@@H](C3(C)C)[C@]2(C)O1 [Compound 240] (X17-[Dab]TAK-{boroAla((+)-pinanediol)})

>  <log10 IC50>
1.94

$$$$
>  <compound>
CCCCCCCCCC(=O)NCCC(=O)N[C@@H](CCCCN)C(=O)N[C@H](C(=O)N[C@@H](C)C(=O)N[C@@H](CC(N)=O)C(=O)N[C@@H](C)B1OC2C[C@@H]3C[C@@H](C3(C)C)[C@]2(C)O1)[C@@H](C)O (some centres unmarked) [Compound 199] ({Decanoyl-βAla}-KTAN-X1)

>  <log10 IC50>
0.15

$$$$
>  <compound>
CCCCCCc1ccc(C(=O)N[C@H](CO)C(=O)N[C@H](C)C(=O)NCC(=O)N(C)[C@H](C(=O)N[C@@H](C)C(=O)N[C@@H](CC(C)C)C(=O)NC(C)C(=O)C(=O)NC)C(C)O)cc1 (some centres unmarked) [Compound 114] ({Benzoyl(4-hexyl)}-[dS][dA]G[NMeThr(3ξ)]AL[ξ3Amino2oxobutanoyl]-NHMe)

>  <log10 IC50>
2.59

$$$$
>  <compound>
CCCCc1ccc(-c2ccc(C(=O)N[C@@H](CCN)C(=O)N[C@H](C(=O)N[C@@H](C)C(=O)N[C@@H](CCCCN)C(=O)N[C@@H](C)B3O[C@@H]4C[C@@H]5C[C@@H](C5(C)C)[C@]4(C)O3)[C@@H](C)O)cc2)cc1 [Compound 187] ({Biphenylcarbonyl(4'-Bu)}-[Dab]TAK-{boroAla((+)-pinanediol)})

>  <log10 IC50>
3.32

$$$$
>  <compound>
CCCCc1ccc(-c2ccc(CC(=O)N[C@@H](CCN)C(=O)N[C@H](C(=O)N[C@@H](C)C(=O)N[C@@H](CCCCN)C(=O)N[C@@H](C)B3OC4C[C@@H]5C[C@@H](C5(C)C)[C@]4(C)O3)[C@@H](C)O)cc2)cc1 (some centres unmarked)

>  <log10 IC50>
1.90

$$$$
>  <compound>
C[C@H](NC(=O)[C@H](CCCCN)NC(=O)[C@H](C)NC(=O)[C@@H](NC(=O)[C@H](CCN)NC(=O)c1ccc(-c2ccccc2C(F)(F)F)cc1)[C@@H](C)O)B1OC2C[C@@H]3C[C@@H](C3(C)C)[C@]2(C)O1 (some centres unmarked)

>  <log10 IC50>
2.11

$$$$
>  <compound>
CCCCc1ccc(-c2ccc(C(=O)N[C@@H](CCCCN)C(=O)N3C[C@H](N)C[C@H]3C(=O)N[C@@H](C)C(=O)N[C@@H](CC(C)C)C(=O)N[C@@H](C)B(O)O)cc2)cc1 [Compound 152] ({Biphenylcarbonyl(4'-Bu)}-K[Pro(4R-NH2)]AL-boroAla)

>  <log10 IC50>
2.54

$$$$
>  <compound>
CCCCc1ccc(-c2ccc(C(=O)N[C@@H](CCCCN)C(=O)N[C@@H](CCN)C(=O)N[C@@H](C)C(=O)N[C@@H](CC(C)C)C(=O)N[C@@H](C)B(O)O)cc2)cc1 [Compound 161] ({Biphenylcarbonyl(4'-Bu)}-K[Dab]AL-boroAla)

>  <log10 IC50>
2.48

$$$$

Where do the numbers come from? From patent US9708368B2.
